Species on record: Rattus norvegicus
Assay: Reduction in sterol level in CFE rat […] in serum at 0.1% of diet treated through diet for 6 days relative to control
Format: functional
Parameters: scale not given: the % may be the effect or the level left
Field: Activity. Provide a value for each of the compounds that follow.
Use % as the unit, but write only the number.

(Q) Item CCCCCCCCCCCCCCCC(C)(C)Oc1ccc(C(=O)O)cc1 has what recorded Activity?
(A) 96

(Q) Query (compound): C=CCCCCCCCCCOc1ccc(C(=O)O)cc1 ; field requested: Activity
(A) 86

(Q) // lookup Activity for CCCCCCCCCCCC(CCOc1ccc(C(=O)O)cc1)SCC (stereo not given)
(A) 83

(Q) Return reported Activity; argument: CCCCCCCCCCCC(O)C(O)CCCOc1ccc(C(=O)O)cc1 (stereo not given)
(A) 83

(Q) Consider the compound COC(=O)c1ccc(OCCCCCCCCCCCSC(C)=O)cc1 and give its measured Activity.
(A) 113

(Q) # input compound: O=C(O)c1ccc(OCCCCCCCCCCCSCc2ccccc2)cc1 ; wanted: its Activity
(A) 77

(Q) Can you look up the measured Activity of CCCCCCCCCC/C=C/CCCOc1ccc(C(=O)O)cc1 for me?
(A) 79

(Q) # query: Activity of entry COC(=O)c1ccc(OCCCCCCCCCCCO)cc1
(A) 92

(Q) If you can, please state the reported Activity value of CCCCCCCCC/C=C/CCCOc1ccc(C(=O)O)cc1 .
(A) 77

(Q) Fill in the blank: the reported Activity of CCCSCCCCCCCCCCCOc1ccc(C(=O)O)cc1 is ____.
(A) 86

(Q) Look up Activity: CCCCNC(=O)CCCCCCCCCCOc1ccc(C(=O)OC)cc1
(A) 96

(Q) # query: Activity of entry O=C(O)c1ccc(OC(=O)C2C3CC4CC(C3)CC2C4)cc1 (stereo not given)
(A) 92

(Q) Bench note: what Activity did COCCCCCCCCCCCOc1ccc(C(=O)O)cc1 show?
(A) 97

(Q) // lookup Activity for O=C(O)c1ccc(OCCCCCCCCCCCCCCCSCc2ccccc2)cc1
(A) 82

(Q) Param item = COC(=O)c1ccc(OCC2(C34CC5CC(CC(C5)C3)C4)SCCS2)cc1 ; retrieve measured Activity.
(A) 93

(Q) Sample O=C(O)c1ccc(OC2C3CC4CC(C3)CC2C4)cc1 (stereo not given) — what was its Activity?
(A) 96

(Q) Dear colleague, I am looking for the recorded Activity of the following compound: O=C(O)c1ccc(OC23CC4CC(CC(C4)C2)C3)cc1
(A) 88

(Q) # input compound: CCCCCCCCCCCCC/C=C/COc1ccc(C(=O)O)cc1 ; wanted: its Activity
(A) 81

(Q) What measured Activity goes with CCCCCCCCCCCCCC(CC)Oc1ccc(C(=O)O)cc1 (stereo not given) ?
(A) 85

(Q) Need Activity, item O=C(O)c1ccc(OCC2CCCCCCCCCCC2)cc1
(A) 101

(Q) Report Activity for CCCCCCCCCCCC(Cl)CCOc1ccc(C(=O)OC)cc1 (stereo not given) please.
(A) 84

(Q) Sample CCCCCCCCCCCCCC#CCOc1ccc(C(=O)OC)cc1 — what was its Activity?
(A) 89

(Q) Data request, read-out Activity, for CCCCCCCCCCCCC/C=C\COc1ccc(C(=O)O)cc1
(A) 90

(Q) Quick one: Activity of CCCCCCCCCCCCCCCCOc1ccc(C(=O)O)cc1 ?
(A) 74

(Q) Form field: reported Activity of CCCCCCCCCCCCCCCCOc1ccc(C(=O)O)cc1Cl
(A) 103

(Q) Entry CCCCCCCCCCCCCCCCOc1ccc(C(=O)O)cc1[N+](=O)[O-] : reported Activity = ?
(A) 103

(Q) Look up Activity: CCCCCCCCCCCCCC(C)(C)Oc1ccc(C(=O)O)cc1
(A) 100

(Q) Item C=CCCCCCCCCCOc1ccc(C(=O)OC)cc1 has what recorded Activity?
(A) 90

(Q) Returns the measured Activity for the input compound. Input: O=C(O)c1ccc(OCCCCCCCCCCCCS)cc1
(A) 79

(Q) Recorded Activity of CCCCCCCCCCCC(CCOc1ccc(C(=O)O)cc1)SCc1ccccc1 (stereo not given) , please.
(A) 92

(Q) Which value of Activity has been reported for CCCCCCCCCCCCCC#CCOc1ccc(C(=O)O)cc1 in the records?
(A) 82

(Q) Item under review: CCCCCCCCCCCCCCCCOc1c(Cl)cc(C(=O)O)cc1Cl . Reported Activity?
(A) 103

(Q) Tell me the measured Activity of CCCCCCCCCCCC(C)(C)Oc1ccc(C(=O)O)cc1 , please.
(A) 83

(Q) Give its Activity value. Item: CCCCCCCCCCCC(S)CCOc1ccc(C(=O)O)cc1 (stereo not given)
(A) 83

(Q) Return reported Activity; argument: CCCCCCCCCCCC(=O)CCOc1ccc(C(=O)O)cc1
(A) 92

(Q) Need Activity of O=C(O)c1ccc(OCCCCCCCCCCCCCCCCS)cc1 , thanks.
(A) 83

(Q) Would you mind telling me what Activity value was observed for CCCCNC(=O)CCCCCCCCCCOc1ccc(C(=O)O)cc1 ?
(A) 88

(Q) Name the recorded Activity for CCCCCCCCCCCC(CCOc1ccc(C(=O)O)cc1)N=[N+]=[N-] (stereo not given) .
(A) 76

(Q) Please report the recorded Activity for O=C(O)c1ccc(OC2CCCCCCCCCCC2)cc1 .
(A) 86

(Q) Fill in the blank: the reported Activity of CCCCSCCCCCCCCCCCOc1ccc(C(=O)O)cc1 is ____.
(A) 76

(Q) If you can, please state the reported Activity value of CCCCCCCCCCCC(CCOc1ccc(C(=O)OC)cc1)SC(C)=O (stereo not given) .
(A) 81

(Q) // Activity lookup, key: CCCCCCCCCCC/C(CCOc1ccc(C(=O)OC)cc1)=N/O
(A) 64

(Q) GET /values?readout=Activity&item= CCOCCCCCCCCCCCOc1ccc(C(=O)O)cc1
(A) 95

(Q) Item O=C(O)c1ccc(OCCCCCCCCCCCCCCCS)cc1 has what recorded Activity?
(A) 82

(Q) What value of Activity has been reported for the following compound? COCCCCCCCCCCCOc1ccc(C(=O)OC)cc1
(A) 104

(Q) Report Activity for CCCCCCCCCCCC(Cl)CCOc1ccc(C(=O)O)cc1 (stereo not given) please.
(A) 60

(Q) # lookup: Activity of CCCCCCCCCCCCCCCCOc1c(I)cc(C(=O)O)cc1I
(A) 93

(Q) What measured Activity goes with CCS(=O)(=O)CCCCCCCCCCCCCCCCOc1ccc(C(=O)O)cc1 ?
(A) 89

(Q) For the compound shown here, CCCCNCCCCCCCCCCCOc1ccc(C(=O)O)cc1 , give the reported Activity.
(A) 100

(Q) Look at this compound and give its reported Activity. COC(=O)c1ccc(OCCCCCCCCCCCOS(C)(=O)=O)cc1
(A) 91

###

Give measured Activity for each item. Keep answers brief.
Organism: Rattus norvegicus
Assay: Reduction in triglyceride level in CFE rat […] in serum at 0.1% of diet treated through diet for 6 days relative to control
Format: functional
Design: scale not given: the % may be the effect or the level left
Write the answer as a number in %, unit excluded.

(Q) Which value of Activity has been reported for CCCCCCCCCCC/C=C/CCCOc1ccc(C(=O)OC)cc1 in the records?
(A) 68

(Q) // query Activity value for entry CCCCSCCCCCCCCCCCOc1ccc(C(=O)OC)cc1
(A) 69

(Q) # Activity lookup, item CCCCCCCCCCCC(=O)CCOc1ccc(C(=O)OC)cc1
(A) 61

(Q) Which Activity is reported for this molecule? O=C(O)c1ccc(OCCCCCCCCCCCSCc2ccccc2)cc1
(A) 41

(Q) Query: Activity; subject: CCCCCCCCCCCCCCCCOc1ccc(C(=O)OC2CCN(C)CC2)cc1
(A) 117

(Q) Consider the molecule shown here: COC(=O)c1ccc(OCCCCCCCCCCCSCc2ccccc2)cc1 What is its recorded Activity?
(A) 58

(Q) Using the record for COC(=O)c1ccc(OCCCCCCCCCCCOS(C)(=O)=O)cc1 , report its Activity.
(A) 72

(Q) Request the reported Activity associated with CCCCCCCCCCCC(CCOc1ccc(C(=O)O)cc1)SCC (configuration not stated)
(A) 44

(Q) # Activity lookup, item CCCCCCCCCCCCCC(CC)Oc1ccc(C(=O)O)cc1 (configuration not stated)
(A) 75

(Q) Dear colleague, I am looking for the recorded Activity of the following molecule: COC(=O)c1ccc(OCCCCCCCCCCCSC(C)=O)cc1
(A) 63

(Q) Which Activity reading was recorded for the molecule CCCCCCCCCCCC1OC1CCCOc1ccc(C(=O)OC)cc1 (configuration not stated) ?
(A) 65

(Q) I'd like to know its Activity. The molecule in question is COC(=O)c1ccc(OCCCCCCCCCCCCl)cc1
(A) 41

These measurements were taken from ChEMBL document CHEMBL3272177.
